- System: Bacteria
- measurement.notes: Geometric mean of MIC was determined in vitro against gram-positive strains using standard microtitration techniques
- Assay type: functional
Classes (MIC): lower range: < 0.2 µg/mL; middle range: ≥ 0.2 µg/mL and < 0.5 µg/mL; upper range: ≥ 0.5 µg/mL

IN: Which of the defined bands does the recorded MIC of `O=C(O)c1cn(C2CC2)c2cc(N3CCNCC3)c(F)cc2c1=O` sit within?
OUT: upper range

IN: Please let me know in which category the item NC1C=C(c2nc3c(cc2F)c(=O)c(C(=O)O)cn3-c2ccc(F)cc2F)CC1 (stereo not drawn) belongs.
OUT: lower range

IN: For `O=C(O)c1cn(C2CC2)c2cc(C3=CCNCC3)c(F)cc2c1=O` , which MIC bin applies?
OUT: middle range

IN: Would you mind sorting `O=C(O)c1cn(-c2ccc(F)cc2F)c2nc(C3=CCNCC3)c(F)cc2c1=O` into the appropriate category?
OUT: upper range

###

- Test system: Mus musculus
- measurement.notes: Protective dose in vivo was determined in acute, lethal systemic infections in female Charles River CD-1 mice against Escherichia coli Vogel
- Type: functional
- assay.context: read-out: PD50
Binning rule for recorded ED50: zone 1: < 1 mg/kg; zone 2: ≥ 1 mg/kg and < 2 mg/kg; zone 3: ≥ 2 mg/kg

Solved cases (3 shown):
NC1CCN(c2nc3c(cc2F)c(=O)c(C(=O)O)cn3-c2ccc(F)cc2F)C1 (stereo not given) [TOSUFLOXACIN] = zone 1
O=C(O)c1cn(C2CC2)c2cc(C3=CCNCC3)c(F)cc2c1=O = zone 2
NC1C=C(c2cc3c(cc2F)c(=O)c(C(=O)O)cn3C2CC2)CC1 (stereo not given) = zone 3

IN: Sort `O=C(O)c1cn(C2CC2)c2cc(C3CCNCC3)c(F)cc2c1=O` into one of the categories.
OUT: zone 3

IN: Exercise: read the entry `O=C(O)c1cn(C2CC2)c2nc(N3CCNCC3)c(F)cc2c1=O` and state which class it falls under.
OUT: zone 1

IN: Into which category would you place NC1C=C(c2nc3c(cc2F)c(=O)c(C(=O)O)cn3C2CC2)CC1 (stereo not given) ?
OUT: zone 2

###

- Test system: Enterococcus faecalis
- measurement.notes: Antibacterial activity was tested in vitro against Enterococcus faecalis MGH-2 using standard microtitration techniques
- Format: functional
metric: log10(MIC) (log10 of the value in µg/mL)
Base-10 log of MIC, unit µg/mL.

Answered cases to consult:
O=C(O)c1cn(C2CC2)c2nc(C3=CCNCC3)c(F)cc2c1=O = -0.10
NC1C=C(c2cc3c(cc2F)c(=O)c(C(=O)O)cn3C2CC2)CC1 (configuration not stated) = -0.10
NC1C=C(c2nc3c(cc2F)c(=O)c(C(=O)O)cn3-c2ccc(F)cc2F)CC1 (configuration not stated) = -0.70
NC1C=C(c2nc3c(cc2F)c(=O)c(C(=O)O)cn3C2CC2)CC1 (configuration not stated) = -0.40
O=C(O)c1cn(C2CC2)c2cc(C3=CCNCC3)c(F)cc2c1=O = -0.10

Batch: log10(MIC) for all items listed.
1. O=C(O)c1cn(C2CC2)c2cc(C3CCNCC3)c(F)cc2c1=O
2. O=C(O)c1cn(-c2ccc(F)cc2F)c2nc(C3=CCNCC3)c(F)cc2c1=O

OUT:
1. 0.49
2. 0.20

###

- target.desc: DNA gyrase (Escherichia coli, UniProt P0AES4+P0AES6)
- measurement.notes: Inhibition of the gyrase mediated cleavage of supercoiled DNA
Can you tell me IC50 for the items I'm about to list?
Numbers only, in µM.

Use these answered entries as a reference point.
NC1C=C(c2nc3c(cc2F)c(=O)c(C(=O)O)cn3-c2ccc(F)cc2F)CC1 (stereo unspecified) = 15.7
O=C(O)c1cn(C2CC2)c2cc(C3=CCNCC3)c(F)cc2c1=O = 2.74
O=C(O)c1cn(C2CC2)c2nc(C3=CCNCC3)c(F)cc2c1=O = 11.5
NC1C=C(c2nc3c(cc2F)c(=O)c(C(=O)O)cn3C2CC2)CC1 (stereo unspecified) = 11.5

Attention now turns to another entry.
Field IC50 (system: DNA gyrase (Escherichia coli, UniProt P0AES4+P0AES6)) for entry `O=C(O)c1cn(-c2ccc(F)cc2F)c2nc(C3=CCNCC3)c(F)cc2c1=O` = 12.5

###

- Tested on: Staphylococcus aureus
- measurement.notes: Antibacterial activity was tested in vitro against Staphylococcus aureus UC-76 using standard microtitration techniques
- Assay type: functional
metric: MIC
Please state the number and follow it with the unit.

// solved cases for MIC follow
O=C(O)c1cn(C2CC2)c2nc(C3=CCNCC3)c(F)cc2c1=O = 0.2 µg/mL
O=C(O)c1cn(C2CC2)c2cc(C3=CCNCC3)c(F)cc2c1=O = 0.1 µg/mL

# context switch: different compound, same MIC
Lab note: NC1C=C(c2nc3c(cc2F)c(=O)c(C(=O)O)cn3-c2ccc(F)cc2F)CC1 (stereo not drawn) gave MIC of 0.025 µg/mL

###

- System: Bacteria
- measurement.notes: Geometric mean of MIC was determined in vitro against gram-positive strains using standard microtitration techniques
- Format: functional
Decide using MIC alone. Strictly below 0.2 µg/mL: label 1. Equal to or above 0.2 µg/mL: label 0.

The following compounds have reported results that may help.
NC1CCN(c2cc3c(cc2F)c(=O)c(C(=O)O)cn3C2CC2)C1 (centres undefined) = label 1
NC1CCN(c2nc3c(cc2F)c(=O)c(C(=O)O)cn3-c2ccc(F)cc2F)C1 (centres undefined) = label 1
O=C(O)c1cn(C2CC2)c2nc(C3=CCNCC3)c(F)cc2c1=O = label 0

IN: Is MIC strictly under 0.2 µg/mL for the entry NC1C=C(c2cc3c(cc2F)c(=O)c(C(=O)O)cn3C2CC2)CC1 (centres undefined) ?
OUT: label 0

IN: Please state whether MIC is below 0.2 µg/mL for NC1CCN(c2nc3c(cc2F)c(=O)c(C(=O)O)cn3C2CC2)C1 (centres undefined)
OUT: label 1

IN: Please determine if `O=C(O)c1cn(C2CC2)c2cc(C3CCNCC3)c(F)cc2c1=O` is below 0.2 µg/mL in terms of MIC.
OUT: label 0

IN: Dear colleague, could you confirm whether MIC of `O=C(O)c1cn(C2CC2)c2nc(N3CCNCC3)c(F)cc2c1=O` falls below 0.2 µg/mL? Thanks.
OUT: label 0

IN: Threshold test, MIC < 0.2 µg/mL: NC1C=C(c2nc3c(cc2F)c(=O)c(C(=O)O)cn3C2CC2)CC1 (centres undefined)
OUT: label 0

###

Would you kindly list ED50 for each of these compounds?
- System: Mus musculus
- measurement.notes: Protective dose in vivo was determined in acute, lethal systemic infections in female Charles River CD-1 mice against Escherichia coli Vogel
- Format: functional
- assay.context: read-out: PD50
Numbers only, in mg/kg.

Sample records with ED50:
NC1CCN(c2nc3c(cc2F)c(=O)c(C(=O)O)cn3C2CC2)C1 (centres undefined) = 2
O=C(O)c1cn(C2CC2)c2nc(C3=CCNCC3)c(F)cc2c1=O = 0.5
O=C(O)c1cn(C2CC2)c2cc(N3CCNCC3)c(F)cc2c1=O [CIPROFLOXACIN] = 1.2

# input for lookup
// ED50 lookup, compound = NC1CCN(c2cc3c(cc2F)c(=O)c(C(=O)O)cn3C2CC2)C1 (centres undefined) , result: 3.4
